# TESTED TARGET: T1, Nt-GCGR-hFc (human, UniProt P47871 26-136)
# T1 construct: domain: N-terminal domain; also called Nt-GCGR-Fc; recombinant N-terminal domain of GCGR; not shown: hFc
# T1 sequence (P47871 26-136): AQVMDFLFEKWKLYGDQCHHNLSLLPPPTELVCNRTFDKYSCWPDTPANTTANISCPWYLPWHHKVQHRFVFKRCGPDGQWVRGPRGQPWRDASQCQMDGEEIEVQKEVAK
# TEST SUMMARY: scFv binding ELISA, periplasmic extract on coated Nt-GCGR
The following binders are listed with their measured ScFv binding ELISA signal values.
Respond numerically, and do not add a unit to the figure.

Task: Requested read-out: ScFv binding ELISA signal. Entry: scFv A7 (scFv) QLQVVESGGGLVQPGGSLRLSCATSGFTFSNYYMSWVRQAPGKGPEWVSSIYSDLSTTYYADSVKGRFTISRDRAKNTLYLQMNSLKSEDTAVYYCARLSTVAGVDYWGKGTLVTVSSSYELTQSPSVSVALRQTAKITCGGNNIGSKSAQWYQQKPGQAPVLVIYADSRRPSGIPEKFSGSNSGNTATLTISGAQAEDEADYYCQVWDSSANAAVFGGGTHLTVLG
Output: 0.394

Task: Repeat with scFv C3 (scFv) QVQRQESGGGLVQPGGSLRLSCATSGFTFSNYYMSWVRQAPGKGPEWVSSIYSDLSTTYYADSVKGRFTISRDRAKNTLYLQMNSLKSEDTAVYYCARLSTVAGVDYWGKGTLVTVSSSYELTQSPSVSVALRQTAKITCGGNNIGSKSAQWYQQKPGQAPVLVIYADVRRPSEIPERFSGSNSGNTATLSVSGAQAEDEADYYCQVWDSSANAAVFGGGTHLTVLG
Output: 0.058

Task: Repeat with scFv B2 (scFv) EVQLQESGGGLVQPGGSLRLSCATSGFTFSNYYMSWVRQAPGKGPEWVSSIYSDLSTTYYADSVKGRFTISRDRAKNTLSLQMNSLKSEDTAVYYCARLSTVAGVDYWGKGTLVTVSSSYELTQSPSVSVALRQTAKITCGGNNIGSKSAQWYQQKPGQAPVLVIYADSRRPSGIPERFSGSNSGNTATLTISGAQAEDEADYYCQVWDSSAAVFGGGTHLTVLG
Output: 0.137

Task: Repeat with scFv C4 (scFv) QVQLQESGPGLVKPSQTLSLTCTVSGGSITTNYYYWSWIRQPPGKGLEWMGAIAYSGSTYYSPSLKSRTSISRDTSKNQFTLQLSSVTPEDTAVYYCARGYYSGSSLDFGSWGQGTQVTVSSLPVLTQPSAVSVSLGQTARITCQGGNVGSYYTSWYQQKPGQAPVLVIYKDSERPSGIPERFSGSSSGNTATLTVSGAQAEDEGDYYCQVWDSSAAVFGGGTHLTVLG
Output: 0.274

New cases:
Task: Requested read-out: ScFv binding ELISA signal. Entry: scFv B5 (scFv, part only; not given: GS linker, not shown: small tags and cut ends) scFv, part: EVQLVQPGAELRNPGASVKVSCKASGYTFTSHYIDWVRQAPGQGLEWMGRIDPEDGGTTYEQKFQGRVTFTADTSTSTVYVELSSLRSEDTAVYYCARSTEIPTIRYYGMDYWGKGTPVTVSSQSVLTQPSAVSVSLGQTARITCQGGSLGSYGANWHQQKPGQAPVLLIYGDNSRPSGIPERFSGSKSGGTATLTISGAQAEDEADYYCQSFDYSGNAVFGGGTHLTVLG
Output: 0.508

Task: Repeat with scFv D6 (scFv, part only; not given: GS linker, not shown: small tags and cut ends) scFv, part: QLQLVESGGGLVQPGGSLRLSCAASGGIFDVMGWYHQAPGKQRGLVASITPAGSTNYADSVKGRFTISRDNAKNTVYLQMNSLKPDDTGVYYCYADGIDPRYGGDEFWGQGTQVTVSSSYELTQSPSVSVALRQTAKITCGGDNIGSKSAQWYQQKPGQAPVLVIYAGSRRPSGIPERFSGSNSGNTATLTVSGAQAEDEANYSCQVWDSSANASVFGGGTHLTVLG
Output: 1.09

Task: Repeat with scFv A1 (scFv) QVQLVESGGGLVQPGGSLRLSCAASGFTFSSYAMTWVRQAPGKGLEWVSTITSNGDSTSYADSVKGRFTISRDNAKNTLYLQMDSLKPEDTAVYYCAKLGDGSYWFYYYGMDYWGQGTQVTVTSSSYELTQSSAVSLSLGQTARITCQGDNLGRYYVNWYQQKPGQAPVQVIYGNSNRPSGIPERFSGSSSGGTATLTISGAQAEDEADYYCQTYENSGVNLVFGGGTKLTVLG
Output: 2.18

Task: Repeat with scFv B4 (scFv) EVQVQESGPGLVKPSQTLSLTCTVSGGSITTDYSYWSWIRQPPGKGLEWMGAIAFSDTTYYSPSLKSRTSISRDTSKNQFTLQLSSVTPEDTAVYYCARLSTVAGMDYWGKGTLVTVSSASAAASGSYELTQSPSVSVALRQTAKITCGGNNIGSKSAQWYQQKPGQAPVLVIYADNRRPSEIPERFSGSNSGDTATLTISGAQAEDEADYYCQVWDSSANAAVFGGGTHLTVLG
Output: 0.476

Data origin: patent US20160207996A1
